Quick reference: melting point of the listed items.
Output spec: scalar in °C, unitless text.

Please review the entries below; each comes with its answer.
In [3]: df
Out[3]:
                                   molecule  endpoint_result
0                     Clc1ccccc1-c1ccccc1Cl             61.5
1                    c1cc2c(c3c1CCCC3)CCCC2             16.7
2                O=[N+]([O-])c1ccc2ncccc2c1              154
3  CCS(=O)(=O)c1nc2ccccn2c1S(=O)(=O)NC(=O)Nc1nc(OC)cc(OC)n1              201

Quick note, melting point for CCCCCCOC=O landed at -62.6

Quick note, melting point for CCCCCc1ccc(O)cc1 landed at 23

Quick note, melting point for CCC(N)C(=O)O (configuration not stated) landed at 304

Quick note, melting point for CC(=O)c1ccc(Br)cc1 landed at 50.5

Quick note, melting point for CC1(c2ccccc2)CCOCO1 (configuration not stated) landed at 37.5

* * *

property measured: log10 vapour pressure (mmHg)
A bare number is all that is needed in reply.

Please review the entries below; each comes with its answer.
In [3]: df
Out[3]:
                                   compound  endpoint_result
0                          COc1cc(C=O)ccc1O            -3.93
1           Clc1ccc(-c2ccc(Cl)c(Cl)c2)cc1Cl            -4.78
2                        O=C(O)CCCCCCC(=O)O            -6.54
3                                C=CC(=C)Cl             2.33
4             ClC1=C(Cl)C(Cl)(Cl)C(Cl)=C1Cl            -1.22
5                                 CCCCCCCCN          -0.0137
6                              CCCCCCCCCCCI            -2.35
7  CC(=O)OC1CCC(C(C)(C)C)CC1 (stereo not drawn)            -2.12
8                                C=CC(CC)CC             1.91
9  CCNc1nc(NC(C)CC)nc(OC)n1 (stereo not drawn)            -5.14

Quick note, log10 vapour pressure (mmHg) for CCOC(=O)c1ccco1 landed at -0.432

Quick note, log10 vapour pressure (mmHg) for CCC(C)=O landed at 1.96

Quick note, log10 vapour pressure (mmHg) for Cc1ccncc1 landed at 0.761

* * *

settings: fish
Quick reference: log10 BCF of the listed items.
A bare number is all that is needed in reply.

>>> df
                                 compound  endpoint_result
0                                c1ccccc1             0.63
1                     Oc1c(Cl)cc(Cl)cc1Cl             1.94
2  O=C1c2ccccc2C(=O)C1c1nc2ccccc2c(Br)c1O             1.14
3        CCOP(=S)(OCC)Oc1cc(C)nc(C(C)C)n1             1.85
4            Clc1ccc2c(c1)Oc1ccc(Cl)cc1O2             2.54
5                          CC(C)CN1CCOCC1             0.25
6                      CC(=O)N(C)c1ccccc1             0.18
7                       Sc1nc2ccccc2[nH]1             0.41

Quick note, log10 BCF for O=[N+]([O-])c1cccc(Cl)c1 landed at 1.89

Quick note, log10 BCF for Clc1cc(Cl)c2c(oc3c(Cl)cc(Cl)c(Cl)c32)c1Cl landed at 2.96

Quick note, log10 BCF for COc1ccc(C)cc1N landed at 0.55

Quick note, log10 BCF for CON(C)C(=O)Nc1ccc(Cl)c(Cl)c1 landed at 1.25

Quick note, log10 BCF for O=[N+]([O-])c1cc(Cl)c(Cl)c(Cl)c1Cl landed at 1.9

Quick note, log10 BCF for C[C@@H]1C[C@@H]([C@H](O)CC2CC(=O)NC(=O)C2)C(=O)[C@@H](C)C1 landed at 0.45

Quick note, log10 BCF for Brc1cc(Br)c(Br)cc1Br landed at 3.59

Quick note, log10 BCF for Oc1c(C2CCCCC2)cccc1C1CCCCC1 landed at 3.02

Quick note, log10 BCF for COP(=S)(OC)Oc1cc(Cl)c(Cl)cc1Cl landed at 3.58

Quick note, log10 BCF for Oc1ccc(Cl)c(Cl)c1 landed at 1.69

Quick note, log10 BCF for CC(C)CCCCCCCOC(=O)c1ccccc1C(=O)OCCCCCCCC(C)C landed at 1.16

Quick note, log10 BCF for Clc1cc(Cl)c(Cl)c(-c2c(Cl)c(Cl)cc(Cl)c2Cl)c1Cl landed at 5.82

Quick note, log10 BCF for Oc1c(Br)cc(Br)cc1Br landed at 2.71

Quick note, log10 BCF for OCC(CO)(CO)CO landed at 0.1

* * *

Param label: returns 1 when melting point < 100 °C, returns -1 otherwise, including exact equality.

                 compound  label
0  Clc1cc(Cl)c(Cl)c(Cl)c1      1

## Input Say whether its melting point is strictly beneath 100 °C. Entry: N#Cc1ccc(O)cc1
## Output -1

## Input Say whether its melting point is strictly beneath 100 °C. Entry: CCCCCCCC(=O)CCC
## Output 1

## Input Say whether its melting point is strictly beneath 100 °C. Entry: N[C@@H](Cc1cc(I)c(O)c(I)c1)C(=O)O
## Output -1

## Input Say whether its melting point is strictly beneath 100 °C. Entry: NC=O
## Output 1

* * *

property measured: boiling point (°C)
Output spec: scalar in °C, unitless text.

Quick note, boiling point for CCCCCCCCCCc1ccccc1 landed at 298

Quick note, boiling point for Clc1ccccc1I landed at 234

Quick note, boiling point for CCCCB(CCCC)CCCC landed at 209

* * *

property measured: boiling point
Give your result as the value with the unit written after it.

Quick note, boiling point for CC#CCCCCCC landed at 162 °C

* * *

Quick reference: melting point of the listed items.
Output spec: scalar in °C, unitless text.

In [3]: df
Out[3]:
                                  structure  scale_unit  endpoint_result
0             O=C(Oc1ccccc1C(=O)O)c1ccccc1O          °C              147
1                            CCc1ccc(Cl)cc1          °C            -62.6
2  CC(C)CCC[C@@H](C)[C@H]1CC[C@H]2[C@@H]3CC=C4C[C@@H](OC(=O)Cc5ccc(N(CCCl)CCCl)cc5)CC[C@]4(C)[C@H]3CC[C@]12C          °C               90
3                  OC(COc1ccccc1)COc1ccccc1          °C             81.5
4                           COc1ccc(N)cc1Cl          °C             52.5

Quick note, melting point for CCCCCCC[C@H](C)O landed at -35.5

* * *

Quick reference: melting point of the listed items.
Output spec: scalar in °C, unitless text.

Please review the entries below; each comes with its answer.
>>> print(df.to_string())
                                  structure  endpoint_result
0          COc1cc(O)c2c(=O)c3cc(O)ccc3oc2c1              266
1                                    CC(F)F             -117
2       Cc1ccc(S(=O)(=O)NC(=O)NC2CCCCC2)cc1              175
3  CC(=O)[C@@]1(O)CC[C@H]2[C@@H]3CC[C@H]4C[C@@H](O)CC[C@]4(C)[C@H]3CC[C@@]21C              265
4                  CCc1cccc([N+](=O)[O-])c1            -37.9
5               Cc1cc2ccccc2c2ccc3ccccc3c12              118

Quick note, melting point for C[C@]12Cc3nonc3C[C@@H]1CC[C@@H]1[C@@H]2CC[C@@]2(C)[C@H]1CC[C@]2(C)O landed at 152
